From: ChEMBL document CHEMBL3046031

// log(1/LC50) lookup, one value per entry
System: Spodoptera litura
Assay: Insecticidal activity against third-instar larvae of Spodoptera litura infested compound-treated cabbage leaf assessed as mortality after 48 hr
Format: functional
readout label: log(1/LC50)

# chemical structure, test value
measured = [
    ("CC(C)(COCc1cccc(Oc2ccccc2)c1)c1ccc(OC(F)(F)F)cc1", 5.36),
    ("CCOc1ccc(C(C)(C)COCc2cccc(Oc3ccccc3)c2)cc1", 4.68),
    ("CC(C)(COCc1cccc(Oc2ccccc2)c1)c1ccc(OC(F)(F)Cl)cc1", 4.96),
    ("CC(C)(COCc1cccc(Oc2ccccc2)c1)c1ccc(OC(F)(F)Br)cc1", 4.83),
    ("CC(C)(COCc1cccc(Oc2ccccc2)c1)c1ccc(OC(F)F)cc1", 4.7),
]

---

// log(1/LC50) lookup, one value per entry
System: Tetranychus urticae
Assay: Acaricidal activity against Tetranychus urticae (two-spotted spider mite) infested kidney bean leaf disk assessed as mortality measured after 48 hr
Format: functional

# chemical structure, log(1/LC50)
records = [
    ("CC(C)(COCc1cccc(Oc2ccccc2)c1)c1ccc(OC(F)(F)F)cc1", 5.14),
    ("CC(C)(COCc1cccc(Oc2ccccc2)c1)c1ccc(OC(F)(F)Br)cc1", 5.77),
    ("CC(C)(COCc1cccc(Oc2ccccc2)c1)c1ccc(OC(F)F)cc1", 3.75),
    ("CCOc1ccc(C(C)(C)COCc2cccc(Oc3ccccc3)c2)cc1", 3.48),
    ("CC(C)(COCc1cccc(Oc2ccccc2)c1)c1ccc(OC(F)(F)Cl)cc1", 5.34),
]

---

System: Spodoptera litura
Assay: Insecticidal activity against third-instar larvae of Spodoptera litura infested compound-treated cabbage leaf assessed as mortality after 48 hr in presence of piperonyl butoxide
Format: functional
// log(1/MLD) lookup, one value per entry
readout label: log(1/MLD)

# chemical structure, tested target, readout label, test value
data = [
    ("CC(C)(COCc1cccc(Oc2ccccc2)c1)c1ccc(OC(F)(F)F)cc1", "Spodoptera litura", "log(1/MLD)", 9.75),
    ("CC(C)(COCc1cccc(Oc2ccccc2)c1)c1ccc(OC(F)(F)Br)cc1", "Spodoptera litura", "log(1/MLD)", 9.77),
    ("CCOc1ccc(C(C)(C)COCc2cccc(Oc3ccccc3)c2)cc1", "Spodoptera litura", "log(1/MLD)", 9.79),
    ("CC(C)(COCc1cccc(Oc2ccccc2)c1)c1ccc(OC(F)(F)Cl)cc1", "Spodoptera litura", "log(1/MLD)", 9.75),
    ("CC(C)(COCc1cccc(Oc2ccccc2)c1)c1ccc(OC(F)F)cc1", "Spodoptera litura", "log(1/MLD)", 9.52),
]
